Cited source for all entries: patent US5190741A

protocol.summary: Tissue distribution in Swiss nu/nu SSCUP mice bearing Beu
Assay type: in vivo, human
test.settings: mouse, lungs, iv, 3 umol/animal; 6 h; read-out: lungs % ID/g

{"compound": "CCN(CC)CCNC(=O)c1ccc(I)cc1 [Derivative A, N-(2-diethylaminoethyl) 4-iodo benzamide]", "tissue uptake at 6 h, %ID/g": 1.25}

---

protocol.summary: Tissue distribution in Swiss nu/nu SSCUP mice bearing Beu
Format: in vivo, human
test.settings: mouse, plasma, iv, 3 umol/animal, 2 h; read-out: plasma % ID/g

{"molecule": "CCN(CC)CCNC(=O)c1ccc(I)cc1 [Derivative A, N-(2-diethylaminoethyl) 4-iodo benzamide]", "tissue uptake at 2 h (%ID/g)": 0.35}
